// provenance: paper PMC2848180

Molecular target: P-gp (Homo sapiens)
Sequence (P08183 whole entry): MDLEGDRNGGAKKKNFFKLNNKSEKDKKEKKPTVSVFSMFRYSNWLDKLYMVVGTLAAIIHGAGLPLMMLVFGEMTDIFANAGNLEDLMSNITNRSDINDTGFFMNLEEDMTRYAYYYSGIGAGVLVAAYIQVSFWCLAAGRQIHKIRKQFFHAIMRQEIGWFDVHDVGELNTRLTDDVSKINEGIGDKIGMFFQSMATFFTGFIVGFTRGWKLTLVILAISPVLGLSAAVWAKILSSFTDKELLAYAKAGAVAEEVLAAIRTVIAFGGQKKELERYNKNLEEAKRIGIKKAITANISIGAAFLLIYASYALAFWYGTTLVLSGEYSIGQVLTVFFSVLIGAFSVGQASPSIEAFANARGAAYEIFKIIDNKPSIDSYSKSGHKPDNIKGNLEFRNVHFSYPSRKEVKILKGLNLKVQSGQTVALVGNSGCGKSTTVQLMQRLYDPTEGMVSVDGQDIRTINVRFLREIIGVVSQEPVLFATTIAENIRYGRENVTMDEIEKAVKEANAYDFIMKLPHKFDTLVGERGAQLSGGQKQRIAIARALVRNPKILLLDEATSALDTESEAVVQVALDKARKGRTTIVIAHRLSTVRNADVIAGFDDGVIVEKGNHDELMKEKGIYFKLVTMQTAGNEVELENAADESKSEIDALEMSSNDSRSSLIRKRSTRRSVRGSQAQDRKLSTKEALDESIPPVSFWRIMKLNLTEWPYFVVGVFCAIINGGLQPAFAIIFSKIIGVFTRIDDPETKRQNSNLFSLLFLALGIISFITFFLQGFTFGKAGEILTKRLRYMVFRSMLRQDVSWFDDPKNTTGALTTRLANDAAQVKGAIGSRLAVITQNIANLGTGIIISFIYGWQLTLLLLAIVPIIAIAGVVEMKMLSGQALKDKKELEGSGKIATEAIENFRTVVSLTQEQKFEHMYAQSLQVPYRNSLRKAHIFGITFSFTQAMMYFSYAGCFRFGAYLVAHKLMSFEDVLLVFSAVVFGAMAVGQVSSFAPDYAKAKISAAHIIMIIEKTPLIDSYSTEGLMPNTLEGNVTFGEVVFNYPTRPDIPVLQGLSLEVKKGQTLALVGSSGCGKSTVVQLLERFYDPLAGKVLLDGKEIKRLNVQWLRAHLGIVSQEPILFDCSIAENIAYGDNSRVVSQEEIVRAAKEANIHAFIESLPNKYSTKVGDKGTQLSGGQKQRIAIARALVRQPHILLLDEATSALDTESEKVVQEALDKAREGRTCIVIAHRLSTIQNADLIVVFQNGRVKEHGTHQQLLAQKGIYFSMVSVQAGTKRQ
Assay: Inhibition of [3H]-rosiglitazone uptake by placental IOVs by cold metformin
Assay type: in vitro ADME
Conditions: human, placental inside-out vesicles (IOVs), probe [3H]-rosiglitazone, 100 nM
Measured Endpoint: inhibition at 1 min (%)
Answer with a number only, understood to be in %.

Q: What value of measured inhibition at 1 min is listed for CN(C)C(=N)N=C(N)N ?
Result: 69
